Answer each item with its documented Mass, dry, sprout, + % to control.
# Tested on: rice (Diamant variety)
# METHOD NOTES: Rice seed treatment with BHMPA salts: germinating power
# Format: in vivo
# REPORTED CONDITIONS: rice seeds; solution concentration 1 · 10^−7%
Your answer should be a plain number; it is taken to be in %.

Prompt: Write down the reported Mass, dry, sprout, + % to control of O.O.O=P([O-])(CO)CO.O=P([O-])(CO)CO.[Mn+2] [Mn-salt, Manganese BHMPA Salt] , test system: rice (Diamant variety).
Completion: 38

Prompt: How about O=P([O-])(CO)CO.[Na+] [Na-salt, Sodium BHMPA Salt] ?
Completion: 15

Prompt: How about O=P([O-])(CO)CO.O=P([O-])(CO)CO.[Ca+2] [Ca-salt, Calcium BHMPA Salt] ?
Completion: 24

Prompt: How about O.O.O=P([O-])(CO)CO.O=P([O-])(CO)CO.[Co+2] [Co-salt, Cobalt BHMPA Salt] ?
Completion: 40

Prompt: How about O=P([O-])(CO)CO.O=P([O-])(CO)CO.[Mg+2] [Mg-salt, Magnesium BHMPA Salt] ?
Completion: 40

----------
# System: winter wheat (Vershin variety)
# METHOD NOTES: Winter wheat seed treatment with BHMPA salts: germinating power (length and mass of roots and sprouts)
# Format: in vivo
# REPORTED CONDITIONS: 1·10^−8% solution
EXPERIMENTAL READOUT: Length, sprout, + % to control (%)
Your answer should be a plain number; it is taken to be in %.

Prompt: Please give the measured Length, sprout, + % to control for this compound: O=P([O-])(CO)CO.O=P([O-])(CO)CO.[Zn+2] [Zn-salt, Zinc BHMPA Salt]
Completion: 4

Prompt: How about O.O.O=P([O-])(CO)CO.O=P([O-])(CO)CO.[Co+2] [Co-salt, Cobalt BHMPA Salt] ?
Completion: 4

Prompt: How about O=P([O-])(CO)CO.O=P([O-])(CO)CO.[Mg+2] [Mg-salt, Magnesium BHMPA Salt] ?
Completion: 3

Prompt: How about O=P([O-])(CO)CO.[Na+] [Na-salt, Sodium BHMPA Salt] ?
Completion: 10

Prompt: How about O=P([O-])(CO)CO.O=P([O-])(CO)CO.[Ca+2] [Ca-salt, Calcium BHMPA Salt] ?
Completion: 10

Prompt: How about O.O.O=P([O-])(CO)CO.O=P([O-])(CO)CO.[Mn+2] [Mn-salt, Manganese BHMPA Salt] ?
Completion: 67

----------
# System: rice (Diamant variety)
# METHOD NOTES: Rice seed treatment with BHMPA salts: germination energy and germination rate
# Type: in vivo
# REPORTED CONDITIONS: seed treatment; concentration 1 · 10^−7%
EXPERIMENTAL READOUT: Germination rate (%)
Your answer should be a plain number; it is taken to be in %.

Prompt: Write down the reported Germination rate of O=P([O-])(CO)CO.[Na+] [Na-salt, Sodium BHMPA Salt] , test system: rice (Diamant variety).
Completion: 82.8

Prompt: How about O.O.O=P([O-])(CO)CO.O=P([O-])(CO)CO.[Mn+2] [Mn-salt, Manganese BHMPA Salt] ?
Completion: 85.0

Prompt: How about O=P([O-])(CO)CO.O=P([O-])(CO)CO.[Ca+2] [Ca-salt, Calcium BHMPA Salt] ?
Completion: 83.3

Prompt: How about O=P([O-])(CO)CO.O=P([O-])(CO)CO.[Mg+2] [Mg-salt, Magnesium BHMPA Salt] ?
Completion: 85.0

Prompt: How about O.O.O=P([O-])(CO)CO.O=P([O-])(CO)CO.[Co+2] [Co-salt, Cobalt BHMPA Salt] ?
Completion: 87.0

Taken from patent US10781224B2.
